Biological target: hGLP-1R (Homo sapiens, UniProt P43220)
Sequence (P43220 24-463): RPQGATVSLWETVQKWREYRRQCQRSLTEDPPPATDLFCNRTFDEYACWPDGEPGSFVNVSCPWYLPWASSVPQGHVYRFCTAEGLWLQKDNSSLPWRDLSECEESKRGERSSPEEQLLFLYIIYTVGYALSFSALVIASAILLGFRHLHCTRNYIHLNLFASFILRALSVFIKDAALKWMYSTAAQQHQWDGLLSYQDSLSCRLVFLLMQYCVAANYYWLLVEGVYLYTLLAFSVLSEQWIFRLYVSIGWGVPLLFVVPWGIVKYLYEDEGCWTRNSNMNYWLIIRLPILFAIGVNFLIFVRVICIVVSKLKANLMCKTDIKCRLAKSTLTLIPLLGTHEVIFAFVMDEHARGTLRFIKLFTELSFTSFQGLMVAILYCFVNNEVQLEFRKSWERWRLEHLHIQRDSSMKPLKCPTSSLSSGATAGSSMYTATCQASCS
Experiment: cell-based or functional assay
Starred links: 1 amine or outer side, 2 acyl side, 3 side chain; linkers in the order of their positions; H or OH if unused. Non-standard residues stand in square brackets, D forms with d. Groups on a side chain read outwards from the residue. No end group written: not given here. *: point of attachment. C20 diacid = O=C(O)CCCCCCCCCCCCCCCCCCC(=O)*; γGlu = O=C(O)[C@H](CCC(=O)[*:2])N[*:1]; NMeY = CN[C@@H](Cc1ccc(O)cc1)C(=O)O; αMeF = C[C@](N)(Cc1ccccc1)C(=O)O; αMeL = CC(C)C[C@](C)(N)C(=O)O; AEEA = NCCOCCOCC(=O)O; Aib = CC(C)(N)C(=O)O
Measurement Type: cAMP Rel EC50 (1% HSA) (nM)
Give bare numbers, in nM.

binder="[NMeY][Aib]QGT[αMeF]TSDYSILLDKQAAKAFVQWLIAGGPSSGEPPPSEG-NH2 (not fully specified (residue 20)) [Example 301]" measurement_type="cAMP Rel EC50 (1% HSA)" observed=82.4

// each listed binder needs a value for cAMP Rel EC50 (1% HSA)
1. YXQGTFTSDFSKXLDKKAQXAFIEYLIEXGPSSGAPPPSGS (synthetic construct; SITE 2: note = 2-Aminoisobutyric Acid; SITE 13: note = alpha-methyl-leucine; SITE 17: note = Lysine is chemically modified through conjugation of the epsilon-amino group of the Lysine side chain with (2-[2-(2-Amino-ethoxy)-ethoxy]-acetyl)-(gamma-Glu)-CO-(CH2) 16-CO2H; SITE 20: n) [Example 797]
2. Y[Aib]QGTFTSDYSI[αMeL]LDKQAAK([AEEA-AEEA-γGlu-C20 diacid])QFVEWLIA[Aib]GPSSGEPPPSEG-NH2 [Example 326]
3. YXQGTFTSDFSXXLDXKAQXAFIEXLLEGGPSSGAPPPGGSEE (Aib, Orn, αMeL, αMeY; acylated Lys; C-terminal amide; synthetic construct; SITE 2: note = 2-Aminoisobutyric Acid; SITE 12: note = L-ornithine; SITE 13: note = alpha-methyl-leucine; SITE 16: note = L-ornithine; SITE 17: note = Lysine is chemically modified through conjugation of the epsilon-amino group of the Lysine side chain with (gamma-Glu)2-CO-(CH2)) [Example 1049]
4. YXQGTXTSDXXIXLDXKAQXQFIEXLQEGGPSSGEPPPEGTE (synthetic construct; SITE 2: note = 2-Aminoisobutyric Acid; SITE 6: note = alpha-methyl-2-fluoro-L-phenylalanine; SITE 10: note = 3-(4-Pyridyl)-L-alanine; SITE 11: note = alpha-methyl-L-serine; SITE 13: note = alpha-methyl-leucine; SITE 16: note = L-ornithine; SITE 17: note = Lysine is chemically mo) [Example 528]

Result:
[102, 172, 780, 24.3]
